Assay: Resistance of constructed mutant 82F virus was calculated as (IC90 for a mutant virus / IC90 of wt HXB2 virus).
Assay type: functional

[
  {
    "given_smiles": "O=C(Nc1ncc[nH]1)c1cccc(CN2C(=O)N(Cc3cccc(C(=O)Nc4ncc[nH]4)c3)[C@H](Cc3ccccc3)[C@H](O)[C@@H](O)[C@H]2Cc2ccccc2)c1",
    "Resistance": 1.6
  },
  {
    "given_smiles": "CC(C)(C)NC(=O)[C@@H]1CN(Cc2cccnc2)CCN1C[C@@H](O)C[C@@H](Cc1ccccc1)C(=O)N[C@H]1c2ccccc2C[C@H]1O.O",
    "Resistance": 2.8
  },
  {
    "given_smiles": "O=C(Nc1nc2ccccc2[nH]1)c1cccc(CN2C(=O)N(CC3CC3)[C@H](Cc3ccccc3)[C@H](O)[C@@H](O)[C@H]2Cc2ccccc2)c1",
    "Resistance": 2.1
  },
  {
    "given_smiles": "O=C(Nc1nccs1)c1cccc(CN2C(=O)N(Cc3ccccc3)[C@H](Cc3ccccc3)[C@H](O)[C@@H](O)[C@H]2Cc2ccccc2)c1",
    "Resistance": 3
  },
  {
    "given_smiles": "CC(C)c1nc(CN(C)C(=O)N[C@H](C(=O)N[C@@H](Cc2ccccc2)C[C@H](O)[C@H](Cc2ccccc2)NC(=O)OCc2cncs2)C(C)C)cs1",
    "Resistance": 8.9
  },
  {
    "given_smiles": "CC(C)(C)NC(=O)[C@@H]1C[C@@H]2CCCC[C@@H]2CN1C[C@@H](O)[C@H](Cc1ccccc1)NC(=O)[C@H](CC(N)=O)NC(=O)c1ccc2ccccc2n1",
    "Resistance": 0.4
  },
  {
    "given_smiles": "O=C1N(Cc2ccc(CO)cc2)[C@H](Cc2ccccc2)[C@H](O)[C@@H](O)[C@@H](Cc2ccccc2)N1Cc1ccc(CO)cc1",
    "Resistance": 7.1
  }
]
